# PROTOCOL_DESCRIPTION: Initial plasma concentration in rat at 0.3 mg/kg, iv
# Type: ADME, organism-based
QUANTITY_KIND: C0 (ng/mL)

structure_smiles_string=C[C@@H](N[C@H]1CCN(c2ccc(CC(=O)O)cc2)C1)c1cccc2ccccc12.Cl.Cl quantity_kind=C0 unit=ng/mL meas_value=1080

====

# MEASUREMENT_TARGET: CYP2C8 (Homo sapiens, UniProt P10632)
# Sequence (P10632 whole entry): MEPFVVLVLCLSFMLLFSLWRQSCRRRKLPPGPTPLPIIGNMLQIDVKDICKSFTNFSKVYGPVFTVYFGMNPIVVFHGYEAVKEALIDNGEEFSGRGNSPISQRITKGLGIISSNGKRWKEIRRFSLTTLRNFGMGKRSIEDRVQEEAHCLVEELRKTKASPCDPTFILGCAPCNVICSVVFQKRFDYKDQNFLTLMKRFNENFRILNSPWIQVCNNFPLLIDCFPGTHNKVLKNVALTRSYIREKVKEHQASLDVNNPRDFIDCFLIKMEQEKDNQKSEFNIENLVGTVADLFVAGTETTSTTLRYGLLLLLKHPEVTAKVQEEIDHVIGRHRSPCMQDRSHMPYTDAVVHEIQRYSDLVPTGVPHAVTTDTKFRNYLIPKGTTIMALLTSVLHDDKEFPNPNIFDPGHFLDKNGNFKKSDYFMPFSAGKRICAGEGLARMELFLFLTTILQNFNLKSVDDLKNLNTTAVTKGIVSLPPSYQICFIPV
# PROTOCOL_DESCRIPTION: Inhibition of CYP2C8 (unknown origin)
# Assay type: ADME
pIC50: −log10 of the molar value.
QUANTITY_KIND: pIC50

structure_smiles_string=C[C@@H](N[C@H]1CCN(c2ccc(CC(=O)O)cc2)C1)c1cccc2ccccc12.Cl.Cl measurement_target="CYP2C8 (Homo sapiens, UniProt P10632)" quantity_kind=pIC50 meas_value="< 4.30"

====

# PROTOCOL_DESCRIPTION: AUC (0 to infinity) in monkey at 1 mg/kg, po
# Assay type: ADME, organism-based, Macaca mulatta
# Parameters: dose 1 mg/kg, time infinity, route oral
# STUDY_CONDITIONS: rhesus monkey, in vivo
QUANTITY_KIND: AUC(0-inf) (ng·h/mL)

structure_smiles_string=C[C@@H](N[C@H]1CCN(c2ccc(CC(=O)O)cc2)C1)c1cccc2ccccc12.Cl.Cl unit=ng·h/mL meas_value=1660

====

# PROTOCOL_DESCRIPTION: Intrinsic clearance in human liver microsomes assessed per protein
# Assay type: ADME, microsome
# STUDY_CONDITIONS: read-out: CLH
QUANTITY_KIND: microsomal CLint (µL/min/mg)

structure_smiles_string=C[C@@H](N[C@@H]1CCCN(c2cccc(C(F)(F)F)c2)C1)c1cccc2ccccc12 meas_value=662
structure_smiles_string=C[C@@H](N[C@H]1CCN(c2cccc(OC(F)(F)F)c2)C1)c1cccc2ccccc12 meas_value=84
structure_smiles_string=C[C@@H](N[C@H]1CCN(c2cccc(C(F)(F)F)c2)C1)c1cccc2ccccc12 meas_value=171
structure_smiles_string=C[C@@H](N[C@H]1CCCN(c2cccc(OC(F)(F)F)c2)C1)c1cccc2ccccc12 meas_value=225
structure_smiles_string=C[C@@H](N[C@H]1CCN(c2ccc(C(=O)NCCO)cc2)C1)c1cccc2ccccc12 meas_value=197
structure_smiles_string=C[C@@H](N[C@@H]1CCCN(c2cccc(OC(F)(F)F)c2)C1)c1cccc2ccccc12 meas_value=370
structure_smiles_string=C[C@@H](N[C@H]1CCN(c2ccc(-c3nn[nH]n3)cc2)C1)c1cccc2ccccc12 meas_value=312
structure_smiles_string=C[C@@H](N[C@@H]1CCN(c2cccc(C(F)(F)F)c2)C1)c1cccc2ccccc12 meas_value=421
structure_smiles_string=C[C@@H](N[C@H]1CCN(c2ccc(CC(=O)O)cc2)C1)c1cccc2ccccc12.Cl.Cl meas_value=68
structure_smiles_string=C[C@@H](N[C@H]1CCN(c2ccc(C(=O)O)cc2)C1)c1cccc2ccccc12 meas_value=97
structure_smiles_string=C[C@@H](N[C@@H]1CCN(c2cccc(OC(F)(F)F)c2)C1)c1cccc2ccccc12 meas_value=206
